Experiment: growth inhibition, single agents and combos, HTB85, cell-based, BGB or cisplatin IC20 combos, synergistic combos for chromothripsis tumors (AID 1671453);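 note: cells exposed for 96 hours before readout; 0% = vehicle DMSO and 100% = high DMSO killing control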
Details: HTB85 osteosarcoma cells, drug combinations, at 0.5 µM
Activity calls are given as the source filed them. Cut-off read from the data, not from the text of the source: active = inhibition above about 80%; inactive = the rest.
Mark one answer only. Choices: active, inactive

Please let me know the test result on file for O=c1oc2c(O)c(O)cc3c(=O)oc4c(O)c(O)cc1c4c23 .
inactive

Please let me know the test result on file for Nc1nc(=S)c2[nH]cnc2[nH]1 .
inactive

Please let me know the test result on file for CCn1cc(C(=O)O)c(=O)c2cc3c(cc21)OCO3 .
inactive

Please let me know the test result on file for O=NN(CCCl)C(=O)NCCCl .
inactive

Please let me know the test result on file for Cc1oncc1C(=O)Nc1ccc(C(F)(F)F)cc1 .
inactive

Please let me know the test result on file for NC(=O)NO .
inactive

Please let me know the test result on file for CN(C)c1ccc(C(=C2C=CC(=[N+](C)C)C=C2)c2ccc(N(C)C)cc2)cc1 .
active

---

Could you please report measured viability decrease (inhibition) for the items listed next?
Assay: NPC library primary testing for decreased DLD-1 cell viability via CellTiter-Glo (AID 1117346)
Settings: DLD-1 viability, CellTiter-Glo luminescence; at 20 µM (top of the series)
Supply the numeric figure in %, leaving out any unit text.

So what's the measured viability decrease (inhibition) for this one? COc1ccc(C(=O)c2ccccc2)c(O)c1
-0.05

So what's the measured viability decrease (inhibition) for this one? CCCCC1C(=O)N(c2ccccc2)N(c2ccc(O)cc2)C1=O (configuration not stated)
101

So what's the measured viability decrease (inhibition) for this one? CCCCC1C(=O)N(c2ccccc2)N(c2ccccc2)C1=O
-12.9

So what's the measured viability decrease (inhibition) for this one? COCCCC/C(=N\OCCN)c1ccc(C(F)(F)F)cc1
23.5

So what's the measured viability decrease (inhibition) for this one? COc1cc(-c2ccc(=O)[nH]n2)ccc1OC(F)F
4.45

So what's the measured viability decrease (inhibition) for this one? CCOc1ccc(NC(C)=O)cc1
-6.2

So what's the measured viability decrease (inhibition) for this one? CN1CCN(C2=Nc3ccccc3Oc3ccc(Cl)cc32)CC1
85

So what's the measured viability decrease (inhibition) for this one? NCCS
-14.1

So what's the measured viability decrease (inhibition) for this one? CC(C)c1ccc2oc3nc(N)c(C(=O)O)cc3c(=O)c2c1
-27.9

So what's the measured viability decrease (inhibition) for this one? CC(=O)N(O)CCCCCNC(=O)CCC(=O)N(O)CCCCCNC(=O)CCC(=O)N(O)CCCCCN
31.5

So what's the measured viability decrease (inhibition) for this one? CCCN[C@H]1CCc2nc(N)sc2C1
38.1

So what's the measured viability decrease (inhibition) for this one? CCCCC1(COC(=O)CCC(=O)O)C(=O)N(c2ccccc2)N(c2ccccc2)C1=O
9.4

---

Could you please report measured GLP1 secretion stimulation for the items listed next?
Experiment: GLP1 release stimulators, primary, NCI-H716, NPC library (AID 1117341); note: reference of the scale not given here
Conditions: NCI-H716 cells, at 10 µM, stronger effect = higher value
Starred links: 1 amine or outer side, 2 acyl side, 3 side chain; linkers in the order of their positions; H or OH if unused. Positions of bridges follow the written chain, without caps; N, C: chain ends. Non-standard residues stand in square brackets, D forms with d. Residues, ends and D or L forms follow the SMILES beside them. Chains are numbered I, II in the order given. Peptide text beside a SMILES is read from it. Actinocin(9to1) = Cc1c2oc3c(C)ccc(C(=O)[*:1])c3nc-2c(C(=O)[*:2])c(N)c1=O; NMeV = CN[C@H](C(=O)O)C(C)C; Sar = CNCC(=O)O
Supply the numeric figure in %, leaving out any unit text.

So what's the measured GLP1 secretion stimulation for this one? NC(=O)NC1NC(=O)NC1=O (stereo not given)
-1.2

So what's the measured GLP1 secretion stimulation for this one? O=C1C(=O)c2ccccc2C(O)=C1C1CCC(c2ccc(Cl)cc2)CC1 (stereo not given)
1.4

So what's the measured GLP1 secretion stimulation for this one? O=C(O)c1cc(O)c(O)c(O)c1
5.1

So what's the measured GLP1 secretion stimulation for this one? COc1cc(-c2ccc(=O)[nH]n2)ccc1OC(F)F
11.6

So what's the measured GLP1 secretion stimulation for this one? COC(=O)[C@H](Cc1ccccc1)NC(=O)[C@@H](N)CC(=O)O (H-Asp-Phe-OMe)
0.8

So what's the measured GLP1 secretion stimulation for this one? CCOC(=O)NNc1nncc2ccccc12
-0.3

So what's the measured GLP1 secretion stimulation for this one? CC(=O)NCCCCCC(=O)O
-0.1

So what's the measured GLP1 secretion stimulation for this one? CC(=O)OCC(=O)[C@H]1CC[C@H]2[C@@H]3CCC4=CC(=O)CC[C@]4(C)[C@H]3CC[C@]12C
-0.6

So what's the measured GLP1 secretion stimulation for this one? CC(N)C(=O)OC(C)(C)Cc1ccc(Cl)cc1 (stereo not given)
5.8

So what's the measured GLP1 secretion stimulation for this one? Cc1ncc([N+](=O)[O-])n1CCO
-0.3

So what's the measured GLP1 secretion stimulation for this one? Cc1c2oc3c(C)ccc(C(=O)N[C@@H]4C(=O)N[C@H](C(C)C)C(=O)N5CCC[C@H]5C(=O)N(C)CC(=O)N(C)[C@@H](C(C)C)C(=O)O[C@@H]4C)c3nc-2c(C(=O)N[C@@H]2C(=O)N[C@H](C(C)C)C(=O)N3CCC[C@H]3C(=O)N(C)CC(=O)N(C)[C@@H](C(C)C)C(=O)O[C@@H]2C)c(N)c1=O (I: T[dV]P[Sar][NMeV] / II: T[dV]P[Sar][NMeV]; ester I:1-I:C, II:1-II:C; linker I:N-II:N via Actinocin(9to1))
1.9

So what's the measured GLP1 secretion stimulation for this one? O=C1c2ccccc2C(=O)C1c1ccccc1
2.1

So what's the measured GLP1 secretion stimulation for this one? OC(CCN1CCCCC1)(c1ccccc1)c1ccccc1
3.3

So what's the measured GLP1 secretion stimulation for this one? C[C@H]1O[C@@H](n2cc(F)c(=O)[nH]c2=O)[C@H](O)[C@@H]1O
-2.6

So what's the measured GLP1 secretion stimulation for this one? CCN(CC)Cc1cc(Nc2ccnc3cc(Cl)ccc23)ccc1O
-1.3

So what's the measured GLP1 secretion stimulation for this one? COc1c2occc2c(OC)c2c(=O)cc(C)oc12
5.9

So what's the measured GLP1 secretion stimulation for this one? O=C(OCc1ccccc1)c1ccccc1
-2.6

So what's the measured GLP1 secretion stimulation for this one? CCN(CC)CCOC(=O)C(c1ccccc1)C1CCCCC1 (stereo not given)
2.9

So what's the measured GLP1 secretion stimulation for this one? CC(C)(C(=O)c1cccnc1)c1cccnc1
0.8

So what's the measured GLP1 secretion stimulation for this one? Cc1c(NC(=O)c2cccnc2)c(=O)n(-c2ccccc2)n1C
-0.1

So what's the measured GLP1 secretion stimulation for this one? CCc1oc2ccccc2c1C(=O)c1cc(Br)c(O)c(Br)c1
21.4

So what's the measured GLP1 secretion stimulation for this one? C[N+]12CCC(CC1)C(OC(=O)C(O)(c1ccccc1)c1ccccc1)C2 (stereo not given)
-3.1

So what's the measured GLP1 secretion stimulation for this one? COc1ccccc1OCC(O)CO (stereo not given)
1.3

So what's the measured GLP1 secretion stimulation for this one? COc1cc(OC)cc(OC)c1
-0.4

So what's the measured GLP1 secretion stimulation for this one? COc1ccc(C(=O)c2ccccc2)c(O)c1
0.5

So what's the measured GLP1 secretion stimulation for this one? CC(=O)Nc1ccc(CC(=O)O)cc1
0.9

So what's the measured GLP1 secretion stimulation for this one? CCC1=C(C)CN(C(=O)NCCc2ccc(S(=O)(=O)NC(=O)NC3CCC(C)CC3)cc2)C1=O (stereo not given)
2.3

So what's the measured GLP1 secretion stimulation for this one? CCOC(=O)C1=C(C)NC(C)=C(C(=O)OC)C1c1cccc(Cl)c1Cl (stereo not given)
5.3

So what's the measured GLP1 secretion stimulation for this one? CC(=O)Oc1ccc(C(c2ccc(OC(C)=O)cc2)c2ccccn2)cc1
5.8

So what's the measured GLP1 secretion stimulation for this one? CCOC(N)=O
-2.3

So what's the measured GLP1 secretion stimulation for this one? CCCCNc1ccc(C(=O)OCCN(C)C)cc1
0.3

So what's the measured GLP1 secretion stimulation for this one? CCN1CC(CCN2CCOCC2)C(c2ccccc2)(c2ccccc2)C1=O (stereo not given)
3.1

So what's the measured GLP1 secretion stimulation for this one? Cc1nnc(SCC2=C(C(=O)O)N3C(=O)[C@@H](NC(=O)Cn4cnnn4)[C@H]3SC2)s1
2.7

So what's the measured GLP1 secretion stimulation for this one? CCCCOc1ccc(OCCCN2CCOCC2)cc1
-1.7

So what's the measured GLP1 secretion stimulation for this one? NC(=O)NC(=O)Cc1ccccc1
-2.2

So what's the measured GLP1 secretion stimulation for this one? NC(=O)c1ncn([C@@H]2O[C@H](CO)[C@@H](O)[C@H]2O)n1
0.7

So what's the measured GLP1 secretion stimulation for this one? CCc1c2c(nc3ccc(OC(=O)N4CCC(N5CCCCC5)CC4)cc13)-c1cc3c(c(=O)n1C2)COC(=O)[C@]3(O)CC
24

So what's the measured GLP1 secretion stimulation for this one? Cc1cc(C(C)(C)C)cc(C)c1CC1=NCCN1
4.3

So what's the measured GLP1 secretion stimulation for this one? NS(=O)(=O)c1cc2c(cc1Cl)NC(CSCc1ccccc1)=NS2(=O)=O
0.4

So what's the measured GLP1 secretion stimulation for this one? O=C(c1ccc(F)cc1)C1CCN(CCn2c(=O)[nH]c3ccccc3c2=O)CC1
2.6

So what's the measured GLP1 secretion stimulation for this one? Nc1nc(=S)c2[nH]cnc2[nH]1
1.9

So what's the measured GLP1 secretion stimulation for this one? CCCCN(CCCC)CCC(O)c1cc2c(Cl)cc(Cl)cc2c2cc(C(F)(F)F)ccc12 (stereo not given)
-0.7

So what's the measured GLP1 secretion stimulation for this one? CCN1CCN(c2cc3c(cc2F)c(=O)c(C(=O)O)cn3C2CC2)CC1
0.4

So what's the measured GLP1 secretion stimulation for this one? O=C(N[C@H](CO)[C@H](O)c1ccc([N+](=O)[O-])cc1)C(Cl)Cl
-4.2

So what's the measured GLP1 secretion stimulation for this one? Cc1nccn1CC1CCc2c(c3ccccc3n2C)C1=O (stereo not given)
-1.9

Ref: PubChem BioAssay
